Where do the numbers come from? From paper PMC9020998.

- measured.target: AChE (Homo sapiens)
- Sequence (P22303 32-614): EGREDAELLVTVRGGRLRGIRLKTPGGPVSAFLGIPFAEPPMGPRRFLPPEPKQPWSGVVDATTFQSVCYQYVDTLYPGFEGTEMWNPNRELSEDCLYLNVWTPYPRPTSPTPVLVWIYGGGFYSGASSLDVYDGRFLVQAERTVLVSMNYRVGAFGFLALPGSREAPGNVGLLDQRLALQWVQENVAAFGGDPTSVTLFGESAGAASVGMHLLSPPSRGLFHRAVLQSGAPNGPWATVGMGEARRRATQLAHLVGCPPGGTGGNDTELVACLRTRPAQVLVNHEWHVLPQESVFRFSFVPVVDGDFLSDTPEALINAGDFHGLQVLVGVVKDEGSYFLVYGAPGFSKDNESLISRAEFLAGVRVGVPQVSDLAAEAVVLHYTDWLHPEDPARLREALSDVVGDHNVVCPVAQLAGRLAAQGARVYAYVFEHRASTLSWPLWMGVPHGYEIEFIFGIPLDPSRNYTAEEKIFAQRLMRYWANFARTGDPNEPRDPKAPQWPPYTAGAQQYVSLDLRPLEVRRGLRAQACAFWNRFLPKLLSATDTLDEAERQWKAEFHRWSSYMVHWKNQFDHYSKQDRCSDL
- experiment: biochemical
- details: Table 2 prints no unit; text b63 μg/mL, abstract μM
- Protocol: The two enzymes break down their respective thiocholine iodide to produce the ion 5-thio-2-nitrobenzoate. […] The enzyme dilutions were prepared in phosphate buffer having pH of 8. Parallelly, the acetyl and butyrylthiocholine iodide solutions (0.05 mM) and DTNB were also prepared in H2O (distilled water of our laboratory) and were stored at 8°C for 15 min. […] The percent inhibitions and their subsequent IC50 values were calculated as per the standard formula [43].
parameter.measured: IC50 (µM)
Response body: numeric value in µM, unit text excluded.

Q: Need IC50 of COc1cc(/C=C2\CC(=O)N(c3ccc(O)cc3)C2=O)ccc1O , thanks.
A: 32.6
